target_or_system: Cst6 (UniProt P40535)
Sequence (P40535 whole entry): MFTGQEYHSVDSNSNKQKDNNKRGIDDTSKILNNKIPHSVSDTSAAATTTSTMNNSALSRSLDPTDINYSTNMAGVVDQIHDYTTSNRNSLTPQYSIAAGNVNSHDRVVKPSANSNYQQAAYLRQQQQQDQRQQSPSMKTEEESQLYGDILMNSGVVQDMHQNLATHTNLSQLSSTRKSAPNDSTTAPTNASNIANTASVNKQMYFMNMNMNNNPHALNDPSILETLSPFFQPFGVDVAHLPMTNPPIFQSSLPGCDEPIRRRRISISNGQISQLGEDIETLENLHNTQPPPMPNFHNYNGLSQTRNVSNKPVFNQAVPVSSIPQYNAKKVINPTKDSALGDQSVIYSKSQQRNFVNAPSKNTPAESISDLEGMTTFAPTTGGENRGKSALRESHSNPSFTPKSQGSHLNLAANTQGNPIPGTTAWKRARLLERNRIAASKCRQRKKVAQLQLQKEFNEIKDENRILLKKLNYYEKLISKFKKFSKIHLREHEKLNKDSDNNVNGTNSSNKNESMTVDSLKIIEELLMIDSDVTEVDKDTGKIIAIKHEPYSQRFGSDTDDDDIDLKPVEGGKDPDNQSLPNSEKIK
assay_name: PBM E-score (8-mer binding enrichment) (E-score (-0.5 to 0.5)); higher = stronger / more preferred TF binding
assay_context: protein concentration: 200 nM; construct: GST-DNA-binding domain
In all, about 33,000 sequences were measured (“E-score (-0.5 to 0.5)”: median about -0.016, highest 2% from about 0.31 on). This is one part of a sample in which the highest values are shown more often than they occur.
readout_name: PBM E-score

[
  {
    "sequence_chain": "AGCTAAAG",
    "readout_number": -0.0194
  },
  {
    "sequence_chain": "AACGTAAT",
    "readout_number": 0.453
  },
  {
    "sequence_chain": "ATGACACA",
    "readout_number": 0.349
  },
  {
    "sequence_chain": "GCTAGTAA",
    "readout_number": 0.0344
  },
  {
    "sequence_chain": "CCAGTGTC",
    "readout_number": -0.108
  },
  {
    "sequence_chain": "GGTTCTAC",
    "readout_number": -0.204
  },
  {
    "sequence_chain": "GCCGTAAA",
    "readout_number": 0.243
  },
  {
    "sequence_chain": "ATGTGGGC",
    "readout_number": -0.068
  },
  {
    "sequence_chain": "CCTTGACC",
    "readout_number": -0.19
  },
  {
    "sequence_chain": "AAGGCACT",
    "readout_number": -0.0255
  },
  {
    "sequence_chain": "AACGTAAG",
    "readout_number": 0.306
  },
  {
    "sequence_chain": "ATGCCTCA",
    "readout_number": 0.11
  },
  {
    "sequence_chain": "ACGCCGCC",
    "readout_number": 0.124
  },
  {
    "sequence_chain": "ATTTGTGA",
    "readout_number": 0.146
  },
  {
    "sequence_chain": "AACAAGAA",
    "readout_number": 0.237
  },
  {
    "sequence_chain": "ACTTAGCA",
    "readout_number": -0.0634
  },
  {
    "sequence_chain": "ATGTCACG",
    "readout_number": 0.396
  },
  {
    "sequence_chain": "CTTTAAGC",
    "readout_number": 0.0326
  },
  {
    "sequence_chain": "ATCGCGTG",
    "readout_number": 0.0786
  },
  {
    "sequence_chain": "ACCGTAAC",
    "readout_number": -0.0255
  },
  {
    "sequence_chain": "TCGCGCAA",
    "readout_number": 0.15
  },
  {
    "sequence_chain": "GCTATACC",
    "readout_number": -0.19
  },
  {
    "sequence_chain": "GCCGTGCC",
    "readout_number": 0.308
  },
  {
    "sequence_chain": "GAAATCCC",
    "readout_number": -0.101
  },
  {
    "sequence_chain": "ATTATGAC",
    "readout_number": 0.394
  },
  {
    "sequence_chain": "ATGTCAAC",
    "readout_number": 0.251
  },
  {
    "sequence_chain": "CCTCGAAA",
    "readout_number": 0.0797
  },
  {
    "sequence_chain": "AGTGGGTG",
    "readout_number": 0.0423
  },
  {
    "sequence_chain": "AGAAAAGA",
    "readout_number": 0.112
  },
  {
    "sequence_chain": "ATGGAGCA",
    "readout_number": 0.0798
  },
  {
    "sequence_chain": "CAGTGCAA",
    "readout_number": 0.0823
  },
  {
    "sequence_chain": "ATCTGCTG",
    "readout_number": 0.0566
  },
  {
    "sequence_chain": "ATCCGCAA",
    "readout_number": -0.0389
  },
  {
    "sequence_chain": "GGAGGTAA",
    "readout_number": -0.0533
  },
  {
    "sequence_chain": "GCCGTGCA",
    "readout_number": 0.279
  },
  {
    "sequence_chain": "AACGTAAA",
    "readout_number": 0.274
  },
  {
    "sequence_chain": "CTGACACA",
    "readout_number": 0.0411
  },
  {
    "sequence_chain": "CCGCCGCA",
    "readout_number": 0.0944
  },
  {
    "sequence_chain": "AGGGCACC",
    "readout_number": -0.282
  },
  {
    "sequence_chain": "ATTTAAAA",
    "readout_number": 0.258
  },
  {
    "sequence_chain": "CTTATGAA",
    "readout_number": 0.052
  },
  {
    "sequence_chain": "AGCTCATA",
    "readout_number": 0.124
  },
  {
    "sequence_chain": "GCGCCGCC",
    "readout_number": 0.25
  },
  {
    "sequence_chain": "AGGCTAAC",
    "readout_number": -0.114
  },
  {
    "sequence_chain": "GACCTAAC",
    "readout_number": 0.0894
  },
  {
    "sequence_chain": "ACCGACGA",
    "readout_number": -0.0237
  },
  {
    "sequence_chain": "GCGGCAGC",
    "readout_number": -0.104
  },
  {
    "sequence_chain": "CGAAAAGA",
    "readout_number": 0.313
  },
  {
    "sequence_chain": "GCGTCAGC",
    "readout_number": 0.15
  },
  {
    "sequence_chain": "GACACGCC",
    "readout_number": 0.0155
  },
  {
    "sequence_chain": "ATGTCAGG",
    "readout_number": 0.176
  },
  {
    "sequence_chain": "CACGTAAA",
    "readout_number": 0.181
  },
  {
    "sequence_chain": "GCCCACGC",
    "readout_number": -0.238
  },
  {
    "sequence_chain": "ACGTCAGA",
    "readout_number": 0.464
  },
  {
    "sequence_chain": "CATCCAGC",
    "readout_number": -0.0585
  },
  {
    "sequence_chain": "ACACACAG",
    "readout_number": 0.107
  },
  {
    "sequence_chain": "GGGTCAGA",
    "readout_number": -0.219
  },
  {
    "sequence_chain": "GCCGTGAA",
    "readout_number": 0.184
  },
  {
    "sequence_chain": "GCGGCACC",
    "readout_number": 0.311
  },
  {
    "sequence_chain": "ATGTCACC",
    "readout_number": 0.465
  },
  {
    "sequence_chain": "GAGACACA",
    "readout_number": -0.0694
  },
  {
    "sequence_chain": "ACGGCATA",
    "readout_number": 0.245
  },
  {
    "sequence_chain": "GGAAACCC",
    "readout_number": -0.147
  },
  {
    "sequence_chain": "ATTGACAG",
    "readout_number": 0.0614
  },
  {
    "sequence_chain": "GCGTCAGA",
    "readout_number": 0.313
  },
  {
    "sequence_chain": "CACGTGAC",
    "readout_number": 0.148
  },
  {
    "sequence_chain": "ACCGTAAG",
    "readout_number": 0.109
  },
  {
    "sequence_chain": "GTGTCAGA",
    "readout_number": -0.0004
  },
  {
    "sequence_chain": "CCGTCAGA",
    "readout_number": -0.0924
  }
]

* * *

Item-by-item account of PBM E-score
target_or_system: Cst6 (UniProt P40535)
assay_name: PBM E-score (8-mer binding enrichment) (E-score (-0.5 to 0.5)); higher = stronger / more preferred TF binding
assay_context: protein concentration: 200 nM; construct: GST-DNA-binding domain
Over roughly 33,000 sequences, “E-score (-0.5 to 0.5)” has its median near -0.016; the highest 2% begin near 0.31. For the sample, the highest values were picked, then their nearest neighbours and some sequences at random.

[
  {
    "sequence_chain": "TTTAAAAA",
    "PBM E-score": 0.0985
  },
  {
    "sequence_chain": "GTCTAGAC",
    "PBM E-score": -0.0977
  },
  {
    "sequence_chain": "CGTCAACC",
    "PBM E-score": 0.377
  },
  {
    "sequence_chain": "ACCGCAAC",
    "PBM E-score": 0.0509
  },
  {
    "sequence_chain": "AGGAGCCT",
    "PBM E-score": -0.209
  },
  {
    "sequence_chain": "AACACCCA",
    "PBM E-score": -0.246
  },
  {
    "sequence_chain": "AAAACATG",
    "PBM E-score": 0.114
  },
  {
    "sequence_chain": "CTCATTGC",
    "PBM E-score": 0.105
  },
  {
    "sequence_chain": "GGAAGAGA",
    "PBM E-score": -0.106
  },
  {
    "sequence_chain": "CAACACTG",
    "PBM E-score": 0.0167
  },
  {
    "sequence_chain": "ATTGAAAC",
    "PBM E-score": 0.194
  },
  {
    "sequence_chain": "GATCATCC",
    "PBM E-score": -0.0712
  },
  {
    "sequence_chain": "GGTCAACA",
    "PBM E-score": -0.0567
  },
  {
    "sequence_chain": "CGCCAGCC",
    "PBM E-score": -0.193
  },
  {
    "sequence_chain": "GGAATGAC",
    "PBM E-score": 0.255
  },
  {
    "sequence_chain": "CCCAGTAC",
    "PBM E-score": -0.202
  },
  {
    "sequence_chain": "AATCATCT",
    "PBM E-score": 0.114
  },
  {
    "sequence_chain": "TATACCGA",
    "PBM E-score": 0.00086
  },
  {
    "sequence_chain": "AGAATGAC",
    "PBM E-score": 0.354
  },
  {
    "sequence_chain": "ATAAAAAG",
    "PBM E-score": 0.307
  }
]
